Please provide measured TGI for the entries that follow.
System: HOP-92 NSCLC
Assay: NCI tumour cell line growth inhibition, 48 h

Below are worked cases with known answers.
>>> print(df.to_string())
                                   molecule  reported_metric       val
0  Cc1nn(-c2ccccc2)c2nc3c(c(C)nn3-c3ccccc3)c(-c3ccc(C(F)(F)F)cc3)c12              TGI  > 100 µM
1  COc1ccc(C2SC(N)=Nc3c2c(C)nn3C(=O)c2ccccc2O)cc1 (stereo not drawn)              TGI   > 10 µM

For the next question, use this molecule.
For the molecule shown here, `COc1ccccc1-c1cc(=O)c2c(C)ccnc2[nH]1` , give the reported TGI. > 100 µM

---

System: HOP-62 NSCLC
Assay: NCI tumour cell line growth inhibition, 48 h
Please provide measured TGI for the entries that follow.

Below are worked cases with known answers.
>>> df
                                   compound       val
0  CC1CC(NN)=Nc2ccccc2N1 (centres undefined)  > 100 µM
1       O=C1C(N2CCOCC2)=C(Cl)C(=O)c2ncccc21   > 10 µM
2  NC1CCCCC1N.O=C([O-])c1cc(S(=O)(=O)Nc2cc(S(=O)(=O)[O-])cc3cc(S(=O)(=O)[O-])cc(O)c23)ccc1[O-].[Pt+4]  > 100 µM
3  O=C(CC(=O)N1N=C(N2c3ccccc3Sc3ccccc32)CC1c1ccccc1)Nc1ccccc1Cl (centres undefined)  > 100 µM
4  COc1ccc(C2(O)C(S(=O)(=O)c3ccc(C)cc3)=Cc3ccc(OC)cc32)cc1 (centres undefined)   77.2 µM
5              COc1ccc2oc(=N)c(C(N)=O)cc2c1  > 100 µM
6            Clc1ccc2c(NCCNC3CCCCC3)ccnc2c1   27.4 µM
7  N#Cc1c2c(c(Nc3ccc(F)cc3)n3c1nc1ccccc13)CCCC2  > 100 µM
8   Clc1ccc(Nc2nnc(CNc3ccccc3)c3ccccc23)cc1   8.84 µM
9  O=C(Cc1nc(-c2ccccc2)cc(=O)n1-c1ccccc1Cl)c1ccncc1  > 100 µM

For each listed entry, give its TGI.
1. O=C(OCc1nc2nc(Cl)nc(N3CCOCC3)c2[nH]1)n1ccnc1
2. Cc1cc(S(=O)(=O)NC2=NCC(C)NN2)c(S)cc1Cl (centres undefined)
3. COc1cccc(/C(COc2ccc3c(c2)oc(=O)c2ccccc23)=N\O)c1
4. C#C[C@]1(O)CCC2C3CCc4cc(Oc5nc(F)nc(-n6c(C)nc7cc8ccccc8cc76)n5)ccc4C3CCC21C (some centres undefined)

4.78 µM
> 100 µM
> 100 µM
> 100 µM

---

Please provide measured TGI for the entries that follow.
Test system: SNB-19 CNS
Test: NCI tumour cell line growth inhibition, 48 h

Below are worked cases with known answers.
>>> print(df.to_string())
                                   compound       val
0  C/C(=C1\SC(=NCc2cccs2)NC1=O)c1ccc2ncccc2c1   > 25 µM
1  COc1cccc(/C(COc2ccc3c(c2)oc(=O)c2ccccc23)=N\O)c1  > 100 µM

For each listed entry, give its TGI.
1. COc1cc(C)cc2c1[nH]c1ccccc12
2. O=C(CC1C(=O)Nc2ccccc2S1(=O)=O)Nc1cc(Cl)ccc1Cl (centres undefined)

1: > 25 µM; 2: 29.8 µM

---

Test system: MOLT-4 leukemia
Test: NCI tumour cell line growth inhibition, 48 h
reported_metric: TGI

Below are worked cases with known answers.
In [3]: df
Out[3]:
                                   compound           target       val
0  CC(C)/C=N\N1C(N)=C(C#N)C(C#N)(C#N)C1C(C)C (stereo not given)  MOLT-4 leukemia  > 100 µM
1  C/C(=C1\SC(=NCc2cccs2)NC1=O)c1ccc2ncccc2c1  MOLT-4 leukemia   > 25 µM
2  COc1ccc2[nH]c3c(C)c4ccnc(NCCCN(C)CCCNc5ccc([N+](=O)[O-])c6[nH]c7ccccc7c(=O)c56)c4c(C)c3c2c1  MOLT-4 leukemia  0.989 µM
3  COC(=O)/C(=N/NC(N)=O)C(C(=O)C(=O)Nc1ccc(C)cc1)c1nc2ccc(C(=O)c3ccccc3)cc2[nH]c1=O (stereo not given)  MOLT-4 leukemia  > 100 µM
4  COc1cccc2c1C(=O)c1c(O)c3c(c(O)c1C2=O)C[C@@](O)(C(C)=O)C[C@@H]3O[C@H]1C[C@H](N)[C@H](O)[C@H](C)O1  MOLT-4 leukemia  0.117 µM

For each listed entry, give its TGI.
1. COc1ccc2c(c1)OCCCN(C)OC2c1ccccc1 (stereo not given)
2. C#C[C@]1(O)CCC2C3CCc4cc(Oc5nc(F)nc(-n6c(C)nc7cc8ccccc8cc76)n5)ccc4C3CCC21C (stereo not given in full)
3. CC(=O)N1C(Nc2ccccc2)CCN1c1ccccc1 (stereo not given)

1. > 100 µM
2. > 100 µM
3. > 10 µM

---

Please provide measured TGI for the entries that follow.
System: U251 CNS
Assay: NCI tumour cell line growth inhibition, 48 h

Below are worked cases with known answers.
>>> print(df.to_string())
                                   compound    target  reported_metric       val
0  COC(=O)C1(C(=O)OC)CC(=O)c2c(OC(=O)c3cccc(OC)c3C#N)ccc(OC(=O)c3cccc(OC)c3C#N)c2C1  U251 CNS              TGI  > 100 µM
1  CCOC(=O)Nc1cc(NC(/C=N/NC(C)=O)C(=O)OCC)c(OC)cc1NC(C)=O (stereo not drawn)  U251 CNS              TGI  > 100 µM

For the next question, use this compound.
For the compound shown here, O=C(CC(=O)N1N=C(N2c3ccccc3Sc3ccccc32)CC1c1ccccc1)Nc1ccccc1Cl (stereo not drawn) , give the reported TGI. > 100 µM

---

Tested on: SW-620 colon
Experiment: NCI tumour cell line growth inhibition, 48 h
Please provide measured TGI for the entries that follow.
Give bare numbers, in µM.

Below are worked cases with known answers.
In [3]: df
Out[3]:
                         chemical_structure        target   val
0   O=C1Nc2ccccc2/C1=C\c1c[nH]c2ccc(Br)cc12  SW-620 colon  10.7
1  N=C1N(/N=C/c2ccccn2)C(=Nc2ccccc2)C(=S)N1c1ccccc1  SW-620 colon  16.3

For the next question, use this compound.
For the compound shown here, `CCCc1cn2c(/C=N/N=C(N)N)c(-c3c(OC)ccc(OC)c3[N+](=O)[O-])nc2s1` , give the reported TGI. 32.9

---

System: RPMI-8226 leukemia
Assay: NCI tumour cell line growth inhibition, 48 h
Please provide measured GI50 for the entries that follow.

For each listed entry, give its GI50.
1. Cn1cc(-c2nonc2-c2cn(C)c3ccc(F)cc23)c2ccccc21
2. O=c1[nH]cnc2c1ccn2C1OC(CO)C(O)C1O (stereo not drawn)
3. O=C(OCc1nc2nc(Cl)nc(N3CCOCC3)c2[nH]1)n1ccnc1

1. 0.463 µM
2. 3.15 µM
3. 0.582 µM

---

Please provide measured TGI for the entries that follow.
Tested on: A498 renal
Experiment: NCI tumour cell line growth inhibition, 48 h
Give bare numbers, in µM.

Below are worked cases with known answers.
molecule	reported_metric	val
COC(=O)/C(=N/NC(N)=O)C(C(=O)C(=O)Nc1ccc(C)cc1)c1nc2ccc(C(=O)c3ccccc3)cc2[nH]c1=O (stereo unspecified)	TGI	89.6
O=C(N=Nc1c(O)[nH]c2ccccc12)C(O)(c1ccccc1)c1ccccc1	TGI	36
CCCCCCCCCC(CCCC(O)CC(=O)O)OC1OC(COC2OC(C)C(O)C(O)C2O)C(O)C(O)C1OC1OC(CO)C(O)C(O)C1OC1OC(C)C(OC(=O)CC(C)C)C(O)C1O (stereo unspecified)	TGI	34.5

For each listed entry, give its TGI.
1. O=C(OCc1nc2nc(Cl)nc(N3CCOCC3)c2[nH]1)n1ccnc1
2. N=C1N(/N=C/c2ccccn2)C(=Nc2ccccc2)C(=S)N1c1ccccc1
3. CNC(=O)Oc1ccc(C(=S)Nc2ccc(Br)cc2)cc1
4. O=C(/C=C/c1cccs1)c1ccc(Cl)cc1Cl
5. Cn1c(=O)c2ccccc2c2ccccc21
6. Cc1ncc(C(=O)Nc2ccc(CN3CCN(C)CC3)c(C(F)(F)F)c2)cc1C#Cc1c(N)ncc2ccc(F)cc12

1. 9.83
2. 39.5
3. 53.3
4. 32.7
5. 93.8
6. 1.74

For each listed entry, give its TGI.
1. CCCN1CCN(c2ccc3nc(-c4ccc5nc(-c6ccc(C(F)(F)F)cc6)[nH]c5c4)[nH]c3c2)CC1
2. O=C(CSc1nnc(-c2ccccn2)s1)N/N=C/c1ccc([N+](=O)[O-])cc1

1. 3.77
2. 75.3

Source listed as PubChem BioAssay (NCI).
